Hello, the source for this data is ChEMBL document CHEMBL3784990, in case you need it.

# test-protocol: Cytotoxicity against human H1299 cells after 72 hrs by MTS assay
# Type: functional, cell-based
# condition-set: NCI-H1299, 72 h
pIC50: −log10 of the molar value.
Rule: pIC50 of 5 or more gives condition met; anything lower gives condition not met.

Use these answered entries as a reference point.
>>> df
                         chemical_structure     category_label
0         NNC(=O)c1nc(N)nc(Nc2ccc(Cl)cc2)n1  condition not met
1  COc1ccc(Nc2nc(Nc3ccc(OC)cc3)nc(C(=O)NNc3ccccc3)n2)cc1      condition met
2  Cc1ccc(Nc2nc(Nc3ccc(C)cc3)nc(C(=O)NNc3ccccc3)n2)cc1  condition not met

Attention now turns to another entry.
I'd appreciate it if you could say whether Cc1ccc(Nc2nc(N)nc(C(=O)NN)n2)cc1 has pIC50 at least equal to 5. condition not met

----------
# IC50 values compiled below
# Test system: A2780
# test-protocol: Cytotoxicity against human A2780 cells after 72 hrs by MTS assay
# Type: functional, cell-based
# condition-set: A2780, 72 h
A number alone suffices; assume µM.

Previously resolved entries follow.
>>> print(df.to_string())
                         chemical_structure  reading_unit  observed
0  COc1ccccc1Nc1nc(Nc2ccccc2OC)nc(C(=O)NNc2ccccc2)n1            µM         5
1  O=C(NNc1ccccc1)c1nc(Nc2ccc(Cl)cc2)nc(Nc2ccc(Cl)cc2)n1            µM       8.2
2  COc1ccc(Nc2nc(Nc3ccc(OC)cc3)nc(C(=O)NNc3ccccc3)n2)cc1            µM       6.3
3           COc1ccccc1Nc1nc(N)nc(C(=O)NN)n1            µM       5.6
4          Cc1ccc(Nc2nc(N)nc(C(=O)NN)n2)cc1            µM       5.5

Give me measured IC50, please, for this molecule: O=C(NNc1ccccc1)c1nc(Nc2ccccc2)nc(Nc2ccccc2)n1 7.1

Give me measured IC50, please, for this molecule: NNC(=O)c1nc(N)nc(Nc2ccccc2)n1 7.3

Give me measured IC50, please, for this molecule: NNC(=O)c1nc(N)nc(Nc2ccc(Cl)cc2)n1 36.6

Give me measured IC50, please, for this molecule: Cc1ccc(Nc2nc(Nc3ccc(C)cc3)nc(C(=O)NNc3ccccc3)n2)cc1 3.6

Give me measured IC50, please, for this molecule: Nc1nc(COC(=O)c2ccc([N+](=O)[O-])cc2)nc(Nc2ccccc2)n1 7.8

Give me measured IC50, please, for this molecule: COc1ccc(Nc2nc(N)nc(C(=O)NN)n2)cc1 14.7

----------
# pIC50 values compiled below
# Tested on: HT-29
# test-protocol: Cytotoxicity against human HT-29 cells after 72 hrs by MTS assay
# Format: functional, cell-based
# condition-set: HT-29, 72 h
// pIC50 here means minus log10 of the molar concentration (mol/L)

Previously resolved entries follow.
>>> print(df.to_string())
                         chemical_structure  experimental_endpoint  observed
0         COc1ccc(Nc2nc(N)nc(C(=O)NN)n2)cc1                  pIC50      5.27
1  Cc1ccc(Nc2nc(Nc3ccc(C)cc3)nc(C(=O)NNc3ccccc3)n2)cc1                  pIC50      5.28
2             NNC(=O)c1nc(N)nc(Nc2ccccc2)n1                  pIC50      5.48

Give me measured pIC50, please, for this compound: COc1ccc(Nc2nc(Nc3ccc(OC)cc3)nc(C(=O)NNc3ccccc3)n2)cc1 5.24

Give me measured pIC50, please, for this compound: NNC(=O)c1nc(N)nc(Nc2ccc(Cl)cc2)n1 5.34
